Assay: chemical genetic growth profiling, strain panel (AID 1159580);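 note: tested at 20 µM; growth read once vehicle control cultures reached saturation at 30 °C; 1 = growth at the plate median or of vehicle wells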
Settings: S. cerevisiae deletion strains, growth OD, locus YGL227W, strain vid30, stronger effect = lower value
Out of some 5,500 compounds screened, about 2,000 (36%) were called active. Not shown: some 18% with an inconclusive outcome. The list shows a part of the results.
quantity name: normalized growth
API doc: respond with a numeric literal and nothing else, no unit.

Sample answers from the record:
CCN(CC)CCCC(C)Nc1c2ccc(Cl)cc2nc2ccc(OC)cc12 (stereo unspecified) :: 1.03
COc1cc(/C=C/C(=O)/C=C(O)/C=C/c2ccc(O)c(OC)c2)ccc1O :: 0.507

Task: Output normalized growth of COc1ccc2cc([C@H](C)CO)ccc2c1
Result: 1

Task: Output normalized growth of COc1ccc2c(C)cc(=O)oc2c1
Result: 0.993

Task: Output normalized growth of CC(C)c1c(C(=O)c2ccccc2)c(-c2ccccc2)c(-c2ccc(F)cc2)n1CC[C@@H](O)C[C@@H](O)CC(=O)O
Result: 0.962

Task: Output normalized growth of C=Cc1c2[nH]c(c1C)C=c1[nH]c(c(C)c1C=C)=CC1N=C(C=c3[nH]c(c(C)c3CCC(=O)O)=C2)C(CCC(=O)O)=C1C (stereo unspecified)
Result: 1.05

Task: Output normalized growth of CC1=C(C(C)O)C2=NC1C=c1[nH]c(c(C)c1C(C)O)=Cc1[nH]c(c(CCC(=O)O)c1C)C=c1[nH]c(c(C)c1CCC(=O)O)=C2 (stereo unspecified)
Result: 0.993

Task: Output normalized growth of CCN(CCO)CCCC(C)Nc1ccnc2cc(Cl)ccc12 (stereo unspecified)
Result: 0.997

Task: Output normalized growth of CC1=C(CC(=O)O)c2cc(F)ccc2/C1=C\c1ccc(S(C)=O)cc1 (stereo unspecified)
Result: 1.03

Task: Output normalized growth of COc1ccc2c3c1O[C@H]1C[C@@H](O)C=C[C@@]31CCN(C)C2
Result: 0.997

Task: Output normalized growth of NCC1CCC(C(=O)O)CC1 (stereo unspecified)
Result: 0.998

Task: Output normalized growth of COc1ccc(OC)c(C(O)C(C)N)c1 (stereo unspecified)
Result: 0.991

Task: Output normalized growth of NC(=O)C(c1ccccc1)(c1ccccc1)C1CCN(CCc2ccc3c(c2)CCO3)C1 (stereo unspecified)
Result: 1.01

Task: Output normalized growth of N=c1ccn2c(n1)O[C@@H]1C2O[C@H](CO)[C@H]1O (stereo partly specified)
Result: 0.984

Task: Output normalized growth of CNC(C)[C@H](O)c1ccccc1 (stereo partly specified)
Result: 0.994

Task: Output normalized growth of CC(CCc1ccccc1)NC(C)C(O)c1ccc(O)cc1 (stereo unspecified)
Result: 1

* * *

Assay: chemical genetic growth profiling, strain panel (AID 1159580)
Details: S. cerevisiae deletion strains, growth OD, locus YHR082C, strain KSP1
The whole screen tested about 5,500 compounds, of which about 2,000 (36%) were called active. Inconclusive results (about 18%) are left out. No stated cut-off is given here; in the data, active means normalized growth mostly below about 0.91 (no sharp cut-off); inconclusive means no clear call, values can overlap the other calls; inactive means mostly above about 0.92. The list shows a part of the results.
Allowed answers: T for active, F for inactive

Solved cases below.
CC(=O)CSc1nnc(-c2ccc(C(C)(C)C)cc2)n1-c1ccc(Cl)cc1 :: F
Cc1ccccc1C(=O)Oc1ccc(C(F)(F)F)cc1[N+](=O)[O-] :: F
COc1ccc(/C=C2\CSc3ccc(F)cc3C2=O)cc1 :: F
Cc1cc(C(=O)NNc2ccc(F)cc2F)no1 :: F
Cc1nn(Cc2cccc(C(=O)Nc3ccc(Cl)cc3)c2)c(C)c1Br :: F

Task: Record request — test call for O=c1c(Sc2ccc(Cl)cc2)c(Sc2ccc(Cl)cc2)c1=O
Result: T

Task: Record request — test call for O=C(Oc1ccc(C(F)(F)F)cc1[N+](=O)[O-])c1cccc(Cl)c1
Result: T

Task: Record request — test call for Cc1nnsc1C(=O)NNc1ccc(F)cc1F
Result: F

Task: Record request — test call for COc1ccc(CN2CSC(=S)N(Cc3ccc(OC)cc3)C2)cc1
Result: F

Task: Record request — test call for Cc1nnsc1C(=O)Nc1cc(C(F)(F)F)cc(C(F)(F)F)c1
Result: F

Task: Record request — test call for Cc1c(Cc2ccc(F)cc2)c(=O)oc2cc(O)ccc12
Result: F

Task: Record request — test call for COc1cc(NC(=S)NC(=O)c2ccccc2)c(OC)cc1Cl
Result: F

Task: Record request — test call for Cc1ccc(Sc2c(Sc3ccc(C)cc3)c(=O)c2=O)cc1
Result: T

Task: Record request — test call for O=S(=O)(Nc1cccc2nsnc12)c1cc(Cl)sc1Cl
Result: F

* * *

Assay: chemical genetic growth profiling, strain panel (AID 1159580);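 note: tested at 20 µM; growth read once vehicle control cultures reached saturation at 30 °C; 1 = growth at the plate median or of vehicle wells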
Conditions: S. cerevisiae deletion strains, growth OD, locus YOL012C, strain htz1
Screen size: about 5,500 compounds; about 2,000 (36%) were called active. Not shown: some 18% with an inconclusive outcome. The list shows a part of the results.
Measured normalized growth values are reported for all entries that follow.
API doc: respond with a numeric literal and nothing else, no unit.

Sample answers from the record:
C=C1C([C@]2(C)C(CC(=O)OC)[C@@](C)(COC(C)=O)OC(=O)C[C@@H]2OC(C)=O)[C@@H](OC=O)[C@H](OC(=O)C(O)C(C)CC)[C@@]2(C)[C@H](c3ccoc3)CC(=O)C12O (some centres undefined) :: 0.797
CCOC(=O)C(=O)C1(C(=O)OCC)Oc2cc(OC)cc(OC)c2C(=O)C1c1ccccc1 (centres undefined) :: 1.05
OCC(O)C(O)C(O)CO (centres undefined) :: 0.9
COc1cc(O)c(C(=O)/C=C/c2ccccc2)c(OC)c1 :: 1.12
CCC(C)C(OC(C)=O)C(=O)OC1C(O)C2C3(C)C=CC(=O)C(C)(C)C3CC(OC(=O)C(O)C(C)C)C2(C)C23OC2CC(c2ccoc2)C13C (centres undefined) :: 2.38
CN1CCC(=C2c3ccccc3CC(=O)c3sccc32)CC1 :: 1.02

Task: Output normalized growth of CCCCCCCCCCCCCCCC(=O)OC/C=C(C)/C=C/C=C(C)/C=C/C1=C(C)CCCC1(C)C
Result: 0.785

Task: Output normalized growth of COc1cc2c(cc1OC)[C@@H]1C(=O)c3ccc4oc(C(C)C)cc4c3O[C@@H]1CO2
Result: 0.869

Task: Output normalized growth of CC1=C(/C=C/C(C)=C/C=C/C(C)=C/C=C/C=C(C)/C=C/C=C(C)/C=C/C23OC2(C)CC(O)CC3(C)C)C(C)(C)CC(O)C1 (centres undefined)
Result: 0.925

Task: Output normalized growth of C[C@H]1OC(n2cc(F)c(=O)[nH]c2=O)C(O)[C@@H]1O (some centres undefined)
Result: 1.08

Task: Output normalized growth of C=C1C2CC[C@H]3[C@]4(C)C[C@H](OC5OC(CO)C(OS(=O)(=O)O)C(OS(=O)(=O)O)C5OC(=O)CC(C)C)C[C@@H](C(=O)O)[C@H]4CC[C@]3(C2)[C@H]1O (some centres undefined)
Result: 0.954

Task: Output normalized growth of CCN(CCO)CCCC(C)Nc1ccnc2cc(Cl)ccc12 (centres undefined)
Result: 0.994

Task: Output normalized growth of c1ccc(N=Nc2ccccc2)cc1
Result: 0.782

Task: Output normalized growth of CC(=O)OCC[N+](C)(C)C
Result: 1.26

Task: Output normalized growth of C[C@]12CC(=O)C3C(CC[C@@H]4C[C@H](O)CC[C@]34C)C1CC[C@]2(O)C(=O)CO (some centres undefined)
Result: 0.641

Task: Output normalized growth of CC(=O)[C@H]1CCC2C3CCC4=CC(=O)CC[C@]4(C)C3CC[C@@]21C (some centres undefined)
Result: 0.798

* * *

Measured normalized growth values are reported for all entries that follow.
Experiment: chemical genetic growth profiling, strain panel (AID 1159580);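 note: tested at 20 µM; growth read once vehicle control cultures reached saturation at 30 °C; 1 = growth at the plate median or of vehicle wells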
Conditions: S. cerevisiae deletion strains, growth OD, locus YLR370C, strain arc18, stronger effect = lower value
About 2,000 (36%) of roughly 5,500 compounds were called active. Another 18% or so got no clear call; they are omitted. This is one part of the list.
API doc: respond with a numeric literal and nothing else, no unit.

Sample answers from the record:
CC(C(=O)O)c1cccc(C(=O)c2ccccc2)c1 (centres undefined) :: 0.979
COc1cc(NC(C)CCCN)c2ncccc2c1 (centres undefined) :: 1.02
CC(=O)OCC(=O)[C@H]1CCC2C3CCC4=CC(=O)CC[C@]4(C)C3CC[C@@]21C (some centres undefined) :: 0.958

Now consider a different compound.
Task: Output normalized growth of CN(C)c1ccc(C(=C2C=CC(=[N+](C)C)C=C2)c2ccc(N(C)C)cc2)cc1
Result: 0.564

* * *

Assay: chemical genetic growth profiling, strain panel (AID 1159580);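 note: tested at 20 µM; growth read once vehicle control cultures reached saturation at 30 °C; 1 = growth at the plate median or of vehicle wells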
Settings: S. cerevisiae deletion strains, growth OD, locus YJR043C, strain POL32, stronger effect = lower value
In all, about 5,500 compounds went through this assay and about 2,000 (36%) were called active. Another 18% or so got no clear call; they are omitted. The list shows a part of the results.
Measured normalized growth values are reported for all entries that follow.
API doc: respond with a numeric literal and nothing else, no unit.

Sample answers from the record:
COc1ccc(CN2C(=O)CSC2c2ccccn2)cc1 (centres undefined) :: 0.995
COc1cc2c(cc1OC)[C@@H]1C(=O)c3ccc(O)c(CC=C(C)C)c3O[C@@H]1CO2 :: 1.05
COc1ccccc1N1CCN(S(=O)(=O)c2cc(C)c(Cl)cc2C)CC1 :: 1

Now consider a different compound.
Task: Output normalized growth of COc1cc2c(cc1OC)[C@@H]1C(=O)c3ccc4oc(C(C)C)cc4c3O[C@@H]1CO2
Result: 1.02

Measured values drawn from PubChem BioAssay AID1159580 for this set.
